B1: FERM and PDZ domain-containing protein 4, residues 75 to 154; numbered along this chain, Q14CM0 (parent)
chain: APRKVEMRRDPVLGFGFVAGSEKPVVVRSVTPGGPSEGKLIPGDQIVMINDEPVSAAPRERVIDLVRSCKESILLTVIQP

Variants of: B1
Test: abundance fitness (aPCA) (normalised: wild type 0, dead -1); higher = more abundant; growth selection in yeast, the domain comes from the species named
Conditions: Homo sapiens
Would you please tag the item Met when its abundance fitness is -0.2 or above, and Not met when it is below?

Please review the entries below; each comes with its answer.
Variant notation: V77C
Assigned label: Met

Variant notation: G33F
Assigned label: Met

Variant notation: S36Q
Assigned label: Not met

Variant notation: Q45R
Assigned label: Met

Variant notation: S68R
Assigned label: Met

Variant notation: P2K
Assigned label: Met

Prompt: Check if abundance fitness >= -0.2 (inclusive). Item: V54S
Response: Not met

Prompt: Item G16H with abundance fitness of -0.2 or above?
Response: Not met

Prompt: Please check the record T31V and state if its abundance fitness is at or above -0.2.
Response: Met
